Target: Kappa-type opioid receptor (Cavia porcellus)
Sequence (P41144 whole entry): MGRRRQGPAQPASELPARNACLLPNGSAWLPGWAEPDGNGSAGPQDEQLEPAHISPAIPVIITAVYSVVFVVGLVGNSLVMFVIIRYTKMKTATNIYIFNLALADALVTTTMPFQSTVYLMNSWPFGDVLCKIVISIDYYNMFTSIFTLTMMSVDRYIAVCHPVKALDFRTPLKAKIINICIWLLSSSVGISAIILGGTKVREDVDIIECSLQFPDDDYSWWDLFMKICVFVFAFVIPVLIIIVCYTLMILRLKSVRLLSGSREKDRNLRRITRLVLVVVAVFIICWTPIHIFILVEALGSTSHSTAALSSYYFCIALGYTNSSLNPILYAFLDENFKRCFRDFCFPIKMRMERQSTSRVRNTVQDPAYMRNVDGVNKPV
endpoint.label: pKi
Would you please state pKi, meaning minus log10 of the concentration in mol/L, as a bare number?

compound | pKi
CCCCCCCN1[C@@H]2CC[C@@H]1CC(c1cccc(O)c1)C2 (relative stereo; 17a) | 9.60
NC(=O)c1cccc(C2C[C@H]3CC[C@H](C2)N3CC(O)Cc2ccccc2)c1 (relative stereo) | 9.50
O=C(CN1[C@@H]2CC[C@@H]1CC(c1cccc(O)c1)C2)C1CCCCC1 (relative stereo; 22b) | 9.10

Ask: Give pKi (Kappa-type opioid receptor (Cavia porcellus)) of the following compound: Oc1cccc(C2C[C@H]3CC[C@H](C2)N3CCCc2ccccc2)c1 (relative stereo; 12a)
Result: 10.00

Ask: Recorded pKi for CC(C)(C)c1ccc(CN2[C@@H]3CC[C@@H]2CC(c2cccc(C(N)=O)c2)C3)cc1 (relative stereo; 28b) with Kappa-type opioid receptor (Cavia porcellus), please?
Result: 7.50

Ask: Enter reported pKi observed with Kappa-type opioid receptor (Cavia porcellus) for CC(C)(C)c1ccc(CN2[C@@H]3CC[C@@H]2CC(c2cccc(O)c2)C3)cc1 (relative stereo; 20a)
Result: 10.00
